- measured_target: human glucagon receptor (human, UniProt P47871 26-477)
- protocol_description: cell-based or functional assay
endpoint_label: cAMP EC50 (nM)
Write the answer as a number in nM, unit excluded.

Take a look at these entries with their results.
>>> quantitative_result("IP295 (Fc fusion) YSEGTFTSDYSKLLEEEAVRLFIEWLLAGGPSSGAPPPSGGGGGSGGGGSGGGGSGGGGSATHTCPPC")
41
>>> quantitative_result("IP272 (Fc fusion) YSEGTFTSDYSKLLEEEAVRLFIEWLLAQKAPPGGSGSTASSGSGSATGGGGAATHTCPPC")
1700
>>> quantitative_result("IP300 (Fc fusion) YSEGTFTSDYSKLLEEEAVRLFIEWLLAGAPPGGGGGGGGGGGGGGGGGGGGGACPPC")
21
>>> quantitative_result("IP285 (Fc fusion) YSEGTFTSDYSKLLEEEAVRLFIEWLVKGPGGGGGGGGGGGGGGGGGGGGGGGATHTCPPC")
1600
>>> quantitative_result("IP266 (Fc fusion) YSEGTFTSDYSKLLEEEAVRLFIEWLLAGAPPGGSGGGGSGGGGSGGGGSATHTCPPCPAPEF")
16
>>> quantitative_result("IP324 (Fc fusion) YSEGTFTSDYSKLLEEEAVRLFIEWLVKGPGGGGGSGGGGSGGGGSGGGGSGGGGSGGGGSGGGGSA")
470
>>> quantitative_result("IP267 (Fc fusion) YSEGTFTSDYSKLLEEEHVRLFIEWLVKGPGGGGGSGGGGSGGGGSGGGGSATHTCPPC")
5800
>>> quantitative_result("IP149 (Fc fusion) YSQGTFTSDYSKLLEEEAVRLFIEWLVKGPAPPGGSGSTASSGSGSATGGGGAATHTCPPCPAPEF")
0.2
>>> quantitative_result("IP280 (Fc fusion) YSEGTFTSDYSKLLEEEAVRLFIEWLVKGGPSSGAPPPSGGGGGSGGGGSGGGGSGGGGSATHTCPPC")
520
>>> quantitative_result("IP274 (Fc fusion) YSEGTFTSDYSKLLEKEAVRLFIEWLLKGPGGGGGSGGGGSGGGGSGGGGSATHTCPPC")
38

Data request: Tell us which cAMP EC50 value is on record for IP400 (Fc fusion) YSEGTHTSDLSKLLEEEAVRLFIEWLLAGGGGGGSGGGGSGGGGSGGGGSATHTCPPC
Data returned: 1300

Data request: Tell us which cAMP EC50 value is on record for IP273 (Fc fusion) YSEGTFTSDYSKLLEEEAVRLFIEWLVKGPAAAGGSGSTASSGSGSATGGGGAATHTCPPC
Data returned: 670
